- target_desc: Bile acid receptor (Homo sapiens, UniProt Q96RI1)
- Sequence (Q96RI1 whole entry, the tested form may be a part): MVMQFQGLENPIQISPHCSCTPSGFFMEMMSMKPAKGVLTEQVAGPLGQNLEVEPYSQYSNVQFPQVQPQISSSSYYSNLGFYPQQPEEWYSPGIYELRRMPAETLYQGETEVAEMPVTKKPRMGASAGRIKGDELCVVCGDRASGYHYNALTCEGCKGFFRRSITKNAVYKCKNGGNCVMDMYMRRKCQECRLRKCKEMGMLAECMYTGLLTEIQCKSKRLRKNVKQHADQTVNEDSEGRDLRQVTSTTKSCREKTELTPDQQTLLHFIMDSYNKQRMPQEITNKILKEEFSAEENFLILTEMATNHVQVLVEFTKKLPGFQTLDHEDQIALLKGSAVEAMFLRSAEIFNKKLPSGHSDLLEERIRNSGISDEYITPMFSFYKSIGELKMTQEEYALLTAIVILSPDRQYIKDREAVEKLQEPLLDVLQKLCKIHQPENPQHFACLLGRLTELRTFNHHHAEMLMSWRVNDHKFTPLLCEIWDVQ
- test_name: Agonist activity at Gal4-fused FXR LBD (unknown origin) transfected in HEK293T cells co-transfected with Peak12-Gal4UAS-luciferase reporter assessed as receptor transactivation incubated for 24 hrs by firefly luciferase assay
quantity_name: EC50 (µM)
Record the value in µM, omitting the unit from your answer.

Tell me EC50 reported for O=C(N1CCN(c2cc(Cl)ccc2O)CC1)C12CC3CC(CC(C3)C1)C2 2.14
